# TARGET_OF_ASSAY: hemagglutinin (HA) ectodomain of A/Vietnam/1203/2004 (H5N1) (influenza A virus A/Vietnam/1203/2004 …)
# EXPERIMENT: AlphaScreen or HTRF
# TEST_CONTEXT: both partners purified
Starred links: 1 amine or outer side, 2 acyl side, 3 side chain; linkers in the order of their positions; H or OH if unused. Positions of bridges follow the written chain, without caps; N, C: chain ends. No end group written: not given here. Suc = O=C(CCC(=O)[*:2])[*:1]
The label yes is reserved for IC50 strictly under 30 µM; no covers values equal to or above it.

- BINDER: "CLYRDPLGVAGGMGC (not fully specified (bridges); cysteine pairing not given here, source: synthetic peptide (manual solid phase Fmoc chemistry, iodine oxidation, RP-HPLC)) [cyclic peptide CP8]"
  CAT: "yes"
- BINDER: "CYRDPLGVAGEMC (not fully specified; cysteine pairing not given here) [cyclic peptide CP13]"
  CAT: "no"
- BINDER: "Suc-VSLYRDPLGVAGGMGVY-NH2 (source: synthetic peptide (manual solid phase Fmoc chemistry, RP-HPLC)) [linear peptide LP1]"
  CAT: "no"
- BINDER: "LYEDPLGVAGGMG (head-to-tail lactam cyclized (no template), source: synthetic peptide (manual solid phase Fmoc chemistry, RP-HPLC)) [cyclic peptide CP14]"
  CAT: "yes"
- BINDER: "CYRDPLGVAGGMC (disulfide 1-13, source: synthetic peptide (manual solid phase Fmoc chemistry, iodine oxidation, RP-HPLC)) [cyclic peptide CP11]"
  CAT: "yes"
- BINDER: "CYEDPLGVAGGMC (not fully specified; cysteine pairing not given here) [cyclic peptide CP12]"
  CAT: "yes"
